Target: Rap guanine nucleotide exchange factor 4 (Homo sapiens) (UniProt Q8WZA2)
Sequence (Q8WZA2 whole entry, looked up): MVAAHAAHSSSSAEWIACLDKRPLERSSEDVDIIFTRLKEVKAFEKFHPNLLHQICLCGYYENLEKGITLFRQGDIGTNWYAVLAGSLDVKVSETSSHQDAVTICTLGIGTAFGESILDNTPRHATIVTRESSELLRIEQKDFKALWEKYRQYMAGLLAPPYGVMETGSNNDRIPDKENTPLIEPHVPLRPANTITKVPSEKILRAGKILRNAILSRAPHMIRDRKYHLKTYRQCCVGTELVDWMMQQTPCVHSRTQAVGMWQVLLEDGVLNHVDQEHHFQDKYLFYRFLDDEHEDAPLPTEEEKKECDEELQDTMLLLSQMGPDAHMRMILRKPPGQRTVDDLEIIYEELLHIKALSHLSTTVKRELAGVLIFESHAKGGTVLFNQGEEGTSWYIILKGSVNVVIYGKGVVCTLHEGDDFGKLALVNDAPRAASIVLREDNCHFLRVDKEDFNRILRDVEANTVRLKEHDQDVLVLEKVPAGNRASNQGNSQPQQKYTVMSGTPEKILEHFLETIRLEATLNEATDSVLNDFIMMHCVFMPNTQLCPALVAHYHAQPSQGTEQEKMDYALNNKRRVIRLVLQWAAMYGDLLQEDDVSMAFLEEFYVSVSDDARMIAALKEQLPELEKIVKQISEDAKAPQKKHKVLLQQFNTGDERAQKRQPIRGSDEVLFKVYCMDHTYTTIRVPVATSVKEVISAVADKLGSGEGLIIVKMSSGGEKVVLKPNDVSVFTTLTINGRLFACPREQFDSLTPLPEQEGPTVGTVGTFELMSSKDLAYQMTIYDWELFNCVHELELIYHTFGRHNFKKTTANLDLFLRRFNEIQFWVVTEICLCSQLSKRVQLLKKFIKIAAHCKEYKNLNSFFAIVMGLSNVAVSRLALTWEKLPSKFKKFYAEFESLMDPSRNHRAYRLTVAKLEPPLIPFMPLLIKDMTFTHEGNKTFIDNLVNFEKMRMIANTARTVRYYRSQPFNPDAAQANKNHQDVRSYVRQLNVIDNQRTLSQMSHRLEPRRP
Assay: Confirmatory qHTS for antagonist of cAMP-regulated guanine nucleotide exchange factor 4 (EPAC2) (AID 1645885); further: nearly all actives have a fitted effect of over 25% in size
Settings: EPAC2 Rap1B-BODIPY-GDP exchange fluorescence, biochemical; series mostly up to 12.7 µM
Inconclusive results are not listed. Active and inactive are the calls of the source. The call rests on the fitted dose curve; in most records, active means well fitted inhibition curve with a large enough effect; inconclusive means small, poorly fitted or top-dose-only effect; inactive means no such curve, though single readings can be large or run the other way.
Classes used: active, inactive

[[record]]
compound = "COC(=O)C1=CC(C(=O)c2cccs2)=NN(c2ccc(OC)cc2)C1C(=O)OC (configuration not stated)"
system_tested = "Rap guanine nucleotide exchange factor 4 (Homo sapiens) (UniProt Q8WZA2)"
assigned_class = "inactive"

[[record]]
compound = "CCc1ccc(N=C2NC(=O)/C(=C/c3ccc(OCC(=O)O)c(OC)c3)S2)cc1"
system_tested = "Rap guanine nucleotide exchange factor 4 (Homo sapiens) (UniProt Q8WZA2)"
assigned_class = "inactive"

[[record]]
compound = "CCc1ccc(-n2c(CCC(=O)O)ccc2-c2cccs2)cc1"
system_tested = "Rap guanine nucleotide exchange factor 4 (Homo sapiens) (UniProt Q8WZA2)"
assigned_class = "inactive"

[[record]]
compound = "COC(=O)Cc1c(C)c2ccc(OC(=O)c3ccco3)cc2oc1=O"
system_tested = "Rap guanine nucleotide exchange factor 4 (Homo sapiens) (UniProt Q8WZA2)"
assigned_class = "inactive"

[[record]]
compound = "O=C(CSc1nccn1Cc1ccc(Cl)cc1)Nc1ccc2c(c1)OCO2"
system_tested = "Rap guanine nucleotide exchange factor 4 (Homo sapiens) (UniProt Q8WZA2)"
assigned_class = "inactive"

[[record]]
compound = "Cc1ccc(N=Cc2cc3c(cc2[N+](=O)[O-])OCO3)cc1[N+](=O)[O-]"
system_tested = "Rap guanine nucleotide exchange factor 4 (Homo sapiens) (UniProt Q8WZA2)"
assigned_class = "inactive"

[[record]]
compound = "CCCn1c(/C=C/c2ccco2)nc2ccccc21"
system_tested = "Rap guanine nucleotide exchange factor 4 (Homo sapiens) (UniProt Q8WZA2)"
assigned_class = "inactive"

[[record]]
compound = "Cc1ccc2cccc(OC(=O)c3c(F)cccc3Cl)c2n1"
system_tested = "Rap guanine nucleotide exchange factor 4 (Homo sapiens) (UniProt Q8WZA2)"
assigned_class = "inactive"

[[record]]
compound = "CCOc1cc(/C=C(/C#N)c2ccc(Cl)cc2)cc(Cl)c1OCC(=O)O"
system_tested = "Rap guanine nucleotide exchange factor 4 (Homo sapiens) (UniProt Q8WZA2)"
assigned_class = "inactive"

[[record]]
compound = "O=C(OCC1OC(n2ncc(=O)[nH]c2=O)C(OC(=O)c2ccccc2)C1OC(=O)c1ccccc1)c1ccccc1 (configuration not stated)"
system_tested = "Rap guanine nucleotide exchange factor 4 (Homo sapiens) (UniProt Q8WZA2)"
assigned_class = "inactive"

[[record]]
compound = "COc1cccc(Nc2ncc3nc(-c4cc(F)cc(F)c4)c(=O)n(CCC#N)c3n2)c1"
system_tested = "Rap guanine nucleotide exchange factor 4 (Homo sapiens) (UniProt Q8WZA2)"
assigned_class = "inactive"

[[record]]
compound = "COC(=O)c1cc2c(N)c(C(=O)c3ccc(Cl)cc3)sc2nc1C(OC)OC"
system_tested = "Rap guanine nucleotide exchange factor 4 (Homo sapiens) (UniProt Q8WZA2)"
assigned_class = "inactive"

[[record]]
compound = "Cc1ccc(CNC(=O)c2ccc3c(c2)nc(C)n3-c2cccc(F)c2)cc1"
system_tested = "Rap guanine nucleotide exchange factor 4 (Homo sapiens) (UniProt Q8WZA2)"
assigned_class = "inactive"

[[record]]
compound = "C=CS(=O)(=O)N(Cc1ccccc1Br)[C@H](CO)CC(C)C"
system_tested = "Rap guanine nucleotide exchange factor 4 (Homo sapiens) (UniProt Q8WZA2)"
assigned_class = "inactive"

[[record]]
compound = "CCOC(=O)N1CCC(Nc2nc3ccccc3n3cnnc23)CC1"
system_tested = "Rap guanine nucleotide exchange factor 4 (Homo sapiens) (UniProt Q8WZA2)"
assigned_class = "inactive"

[[record]]
compound = "O=C(O)CC/C(=C\\c1cccc(NC(=O)c2ccccc2Cl)c1)c1nc2ccccc2s1"
system_tested = "Rap guanine nucleotide exchange factor 4 (Homo sapiens) (UniProt Q8WZA2)"
assigned_class = "inactive"

[[record]]
compound = "CCOC(=O)C1=C(CC)OC(N)=C(C#N)C1c1ccc(OC)c(OC)c1OC (configuration not stated)"
system_tested = "Rap guanine nucleotide exchange factor 4 (Homo sapiens) (UniProt Q8WZA2)"
assigned_class = "inactive"

[[record]]
compound = "NC(CSC(c1ccccc1)(c1ccccc1)c1cccc2ccccc12)C(=O)O (configuration not stated)"
system_tested = "Rap guanine nucleotide exchange factor 4 (Homo sapiens) (UniProt Q8WZA2)"
assigned_class = "inactive"

[[record]]
compound = "Cc1cc(N(C)C)c(C)cc1/C=C/c1ccnc2ccccc12"
system_tested = "Rap guanine nucleotide exchange factor 4 (Homo sapiens) (UniProt Q8WZA2)"
assigned_class = "inactive"

[[record]]
compound = "COc1ccc(Br)cc1CN(C)CC(=O)Nc1c(Cl)cccc1Cl"
system_tested = "Rap guanine nucleotide exchange factor 4 (Homo sapiens) (UniProt Q8WZA2)"
assigned_class = "active"

[[record]]
compound = "COC(=O)c1cc(Br)c(=O)n(CCc2ccc(F)cc2)c1"
system_tested = "Rap guanine nucleotide exchange factor 4 (Homo sapiens) (UniProt Q8WZA2)"
assigned_class = "inactive"

[[record]]
compound = "CC(C)c1ccc(S(=O)(=O)Nc2ccc3c(c2)OCO3)cc1"
system_tested = "Rap guanine nucleotide exchange factor 4 (Homo sapiens) (UniProt Q8WZA2)"
assigned_class = "inactive"

